Below, each entry is listed alongside its reported TGI.
Test system: BT-549 breast
measurement_protocol: NCI tumour cell line growth inhibition, 48 h

Example cases with answers are listed next.
molecule: CC(C)(Oc1ccc(Cl)cc1)C(=O)N(C(=O)N1CCC(c2ccccc2)CC1)c1ccccc1
reported_result: > 95.8 µM
--
molecule: O=C(O)c1ccn(-c2cccc(-n3ccc(C(=O)O)n3)n2)n1
reported_result: > 100 µM
--
molecule: C[C@@H]1CC[C@H]2C(C(O)CCCCC(O)C3=C(C(F)(F)F)O[C@@H]4O[C@@]5(C)CC[C@H]6[C@H](C)CC[C@@H]3[C@@]46OO5)=C(C(F)(F)F)O[C@@H]3O[C@@]4(C)CC[C@@H]1[C@]32OO4 (stereo not given in full)
reported_result: > 100 µM
--
molecule: C/C=C(/C)C(=O)O[C@H](C[C@@H](C)[C@H]1CC(c2ccoc2)OC1=O)[C@@]1(C)C(=O)CCC2O[C@]21C (stereo not given in full)
reported_result: > 100 µM
--
molecule: C/C(Nc1ccc(F)cc1)=C1/CCOC1=O
reported_result: > 100 µM
--
molecule: Cc1cn(Cc2cnnn2CC2OC(n3cc(C)c(=O)[nH]c3=O)CC2O)c(=O)[nH]c1=O (stereo not given)
reported_result: > 100 µM
--
molecule: COc1ccc(C)cc1Nc1nnc(-c2ccccc2N)s1
reported_result: > 100 µM
--
molecule: COc1cc(/C=C2/C[C@H]3[C@@H]4CC=C5C[C@@H](OC(C)=O)CC[C@]5(C)[C@H]4CC[C@]3(C)NC2=O)cc(OC)c1OC
reported_result: 55 µM
--
molecule: N#Cc1c(-c2ccc(Cl)cc2)c2c(n(C3OC(CO)C(O)C(O)C3O)c1=S)CCC2 (stereo not given)
reported_result: 65 µM
--
molecule: CCOc1cc(C2CC(c3ccc(NS(=O)(=O)c4cc([N+](=O)[O-])ccc4C)cc3)=NN2c2ccc([N+](=O)[O-])cc2[N+](=O)[O-])ccc1O (stereo not given)
reported_result: 38.4 µM

query: Look at this molecule and give its reported TGI. `O=c1oc2ccccc2cc1-c1cn2cc(Cl)ccc2n1`
result: 21.9 µM

query: Look at this molecule and give its reported TGI. COC1OC2COC1(OC)C1OC(C)(C)OC21 (stereo not given)
result: > 100 µM

query: Look at this molecule and give its reported TGI. `O=C(OCCN=c1c2ccccc2ccc2ccccc12)c1ccc([N+](=O)[O-])cc1`
result: > 100 µM

query: Look at this molecule and give its reported TGI. CCOP(=O)(OCC)C1CC(n2cc(C)c(=O)[nH]c2=O)OC1CO (stereo not given)
result: > 100 µM

query: Look at this molecule and give its reported TGI. `Cc1ccc(S(=O)(=O)Nc2cccc3[nH]c(C(F)(F)F)nc23)cc1`
result: 52 µM

query: Look at this molecule and give its reported TGI. `CCSCCCN(CCCSCC)CCCSCC`
result: > 100 µM

query: Look at this molecule and give its reported TGI. COc1cc(C2c3cc4c(cc3OC(NNC(N)=O)C2C)OCO4)cc(OC)c1O (stereo not given)
result: > 100 µM

query: Look at this molecule and give its reported TGI. CC1CC/C(=C\c2ccc(Cl)cc2)C2OC(N)=C(C#N)C(c3ccc(Cl)cc3)=C12 (stereo not given)
result: 30.7 µM

query: Look at this molecule and give its reported TGI. CN(C)c1ccc2c(c1)OC(N)=C(C#N)C2c1ccc2c(c1)CCO2 (stereo not given)
result: 12.4 µM

query: Look at this molecule and give its reported TGI. Nc1nc(Nc2ccc(C3CCC(N4CCOCC4)CC3)cc2)nn1-c1ccccn1 (stereo not given)
result: 6.54 µM

query: Look at this molecule and give its reported TGI. `CC(C)(O)CC(=O)NCCn1ccc2ncnc(Nc3ccc(Oc4cccc(C(F)(F)F)c4)c(Cl)c3)c21`
result: > 10 µM
